Experiment: yeast display, Sf9 membrane polyspecificity reagent, FACS + sequencing; frameworks hold sequencing errors
Measured parameter: polyreactivity (PSR sort gate)

Here are 4 sequences together with their reported answers.
>  <Primary sequence>
QVQIVESVGGLVQAGGSLRLSCAASGRTFPYYAKGRYRQAPGKEREMVATISTADSTYYADSVKGRFTISRDNAKNTVYLQMNRLITEATEVYYCAKDRYTYWSVHAFRRLDYWGQGTQLTVSS

>  <polyreactivity (PSR sort gate)>
low polyreactivity

$$$$
>  <Primary sequence>
QVQLVESGGGLVQAGGSLRLSCAASGRIFVANAMGWYRQAPGKERELVAAISRRGGRTYYADSVKGRFTISRDNAKNTVYLQMNSLKPEDTAVYYCARVPTRAEDVAGWTGMDYWGQGTQVTVSS

>  <polyreactivity (PSR sort gate)>
high polyreactivity

$$$$
>  <Primary sequence>
QVQLVESGGGLVQAGGSLRLSCADSGNIFNYYAMGWYRQAPGKERELVAAISTSGGRTYYADSVKGRFTISRDNAKNTVYLQMNSLKPEDTAVYYCAKVNRLYTYDYWGQGTQVTVSS

>  <polyreactivity (PSR sort gate)>
high polyreactivity

$$$$
>  <Primary sequence>
QVQLVESGGGLVQAGGSLRLSCADSGFTFSQYAAIGWYRQAPGKERELVAAINISGSTNYADSVKGRFTISRDNAKNTVYLQMNSLKPEDTAVYYCAAQQSWKIYDYWGLGTQVTVSS

>  <polyreactivity (PSR sort gate)>
low polyreactivity

$$$$

Query block: Kindly indicate its recorded polyreactivity (PSR sort gate). Item: QVQLVESGGGLVQAGGSLRLSCAASGSTFSLYAMGWYRQSPGKETELVASITWGGGSTYADSVKRLFTISRDNAKNTVYLQMNSLKPEDPAVYYCARKYRYRVLYDFAYDHWGQGTEVTVSS
Result block: low polyreactivity

* * *

Assay: yeast display, Sf9 membrane polyspecificity reagent, FACS + sequencing; frameworks hold sequencing errors
Measured parameter: polyreactivity (PSR sort gate)

>  <Primary sequence>
QVQLVESGGGLVQAGGSLRLSCAASGRIFDGNAMGWYRQAPGKERELVAAISWTGGSTYYADSVKGRFTISRDNAKNTVYLQMNSLKPEDTAVYYCAADSGWWLDQWSWYDYWGQGTQVTVSS

>  <Measured value>
low polyreactivity

$$$$
>  <Primary sequence>
QVQLVESGGGLVQAGGSLRLSCVASGRTFSRYAMGWYRQAPGKERELVAAISLRCGRTKYADSVKGRFTISRDNAKNTVYLQMNSLKPEDTAVYYCAADIYYGYPWRYHAGYYEGFDYWGQGTQVTVSS

>  <Measured value>
high polyreactivity

$$$$
>  <Primary sequence>
QVQLVESGGGLVQAGGSLRISCAASGSTFQGYAMGWYREAPGKERELVAAISGRSGSTYYADSVKGRFTISRDNAKNTVFLTMNSLKPVDSAVYYCNARFNRSRRTYDYWVQGTQVTVSS

>  <Measured value>
high polyreactivity

$$$$
>  <Primary sequence>
QVQLVESGGGLVQAGGSLRLSCAASGFTFDGYAMGWYRQAPGKERELVAAISDSGDSTYYADSVKGRFTISRDNAKNTVYLQMNSLKPEDTAVYYCNADAYGTPEFTSYAVRYDYWGQGTQVTVSS

>  <Measured value>
low polyreactivity

$$$$
>  <Primary sequence>
QVQLVESGGGLVQAGGSLRLSCAASGRIFKVYAMGWYRQAPGKERELVAVINGGGSTNYADSVKGRFTISRDNAKNTVYLQMNSLKPEDTAVYYCATEGYGHGGETDGGVYSDLGYWGQGTQVTVSS

>  <Measured value>
low polyreactivity

$$$$
>  <Primary sequence>
QVQLVESGGGVVQAGGSLRLSCAASGYIFFANAMGWYRQAPGKERELVAAISSDGRTYYADSVKGRFTISRDNANNTVYLQMNSLKPEDTAVYYSADYFSGLTYGYYVAGYDYWGQGTQVTVSS

>  <Measured value>
low polyreactivity

$$$$
>  <Primary sequence>
QVQLQESGGGLVQAGGSLRLSCSASGTISDSGLMGWYRQAPGKERELVAGISSGGITNDADSVNRRFTISRDNALFTVYLQMNSLKPEDTALYWGEGTQVTVSS

>  <Measured value>
low polyreactivity

$$$$
>  <Primary sequence>
QVQLVESGGGLVQAGGSLRLSCAASGSIFWYYAMGWYRQAPGKERELVAAITGSGVRTYYADSVKGRFTISRDNAKNTVYLQMNSLKPEDTAVYYCNAVSSHSFYFYGDHNYWGQGTQVTVSS

>  <Measured value>
low polyreactivity

$$$$

Query block: Kindly indicate its recorded polyreactivity (PSR sort gate). Item: QVQLVESGGGLVQAGGSLRLSCAASGSTFPYYARGWYRQAPGKERELVAAITSGGSTNYADSVKGRFTISRDNAKNTVYLQMNSLKPEDTAVYYCAARLRYTTVIYYYWGQGTQVTVSS
Result block: high polyreactivity

Query block: Kindly indicate its recorded polyreactivity (PSR sort gate). Item: QVQLVESGGGLVQAGGSLRLSCAASGFTLRYYAMGWSRQAPVKERELVATIKRSGASTYYADSVKGRFTISRDNSKNTVYLQMNSLKPEDTAVYYCNTATSRAYRYDYWGQGTQVTVSS
Result block: high polyreactivity
